Entry source: paper PMC3726482

# systemName: CyaA-N (Bordetella pertussis, UniProt P0DKX7)
# Construct: gene cya; catalytic domain, amino acids 1 to 373; plasmid pExCyaA-N; purified from E. coli; assayed with calf brain calmodulin; with Calmodulin
# Assay type: biochemical
# measurementConditions: read-out: CyaA-N / KM
Entries whose Km is below 200 µM take 1.0; entries at or above 200 µM take 0.0.

Field: example entries. Status: answers known.
{"molecule": "Nc1nc2c(ncn2[C@@H]2O[C@H](COP(=O)(O)OP(=O)(O)OP(=O)(O)O)[C@@H](O)[C@H]2O)c(=O)[nH]1 [GTP]", "systemName": "CyaA-N (Bordetella pertussis, UniProt P0DKX7)", "groupLabel": 1.0}
{"molecule": "O=P(O)(O)OP(=O)(O)OP(=O)(O)OC[C@H]1O[C@@H](n2cnc3c(O)ncnc32)[C@H](O)[C@@H]1O [ITP]", "systemName": "CyaA-N (Bordetella pertussis, UniProt P0DKX7)", "groupLabel": 0.0}
{"molecule": "Cc1cn([C@H]2C[C@H](O)[C@@H](COP(=O)(O)OP(=O)(O)OP(=O)(O)O)O2)c(=O)[nH]c1=O [TTP]", "systemName": "CyaA-N (Bordetella pertussis, UniProt P0DKX7)", "groupLabel": 1.0}

Inquiry: I wonder whether Nc1ncnc2c1ncn2[C@@H]1O[C@H](COP(=O)(O)OP(=O)(O)OP(=O)(O)O)[C@@H](O)[C@H]1O [ATP] has Km below 200 µM. Can you tell?
Reply text: 1.0

Inquiry: I wonder whether O=c1[nH]c(=O)c2ncn([C@@H]3O[C@H](COP(=O)(O)OP(=O)(O)OP(=O)(O)O)[C@@H](O)[C@H]3O)c2[nH]1 [XTP] has Km below 200 µM. Can you tell?
Reply text: 1.0

Inquiry: I wonder whether Nc1ccn([C@@H]2O[C@H](COP(=O)(O)OP(=O)(O)OP(=O)(O)O)[C@@H](O)[C@H]2O)c(=O)n1 [CTP] has Km below 200 µM. Can you tell?
Reply text: 0.0

Inquiry: I wonder whether O=c1ccn([C@@H]2O[C@H](COP(=O)(O)OP(=O)(O)OP(=O)(O)O)[C@@H](O)[C@H]2O)c(=O)[nH]1 [UTP] has Km below 200 µM. Can you tell?
Reply text: 0.0
